Hey, just so you know, these numbers are from patent US20230158025A1.

- targetEntity: recombinant mouse GALK1 (Mus musculus, UniProt Q9R0N0)
- Sequence (Q9R0N0 whole entry): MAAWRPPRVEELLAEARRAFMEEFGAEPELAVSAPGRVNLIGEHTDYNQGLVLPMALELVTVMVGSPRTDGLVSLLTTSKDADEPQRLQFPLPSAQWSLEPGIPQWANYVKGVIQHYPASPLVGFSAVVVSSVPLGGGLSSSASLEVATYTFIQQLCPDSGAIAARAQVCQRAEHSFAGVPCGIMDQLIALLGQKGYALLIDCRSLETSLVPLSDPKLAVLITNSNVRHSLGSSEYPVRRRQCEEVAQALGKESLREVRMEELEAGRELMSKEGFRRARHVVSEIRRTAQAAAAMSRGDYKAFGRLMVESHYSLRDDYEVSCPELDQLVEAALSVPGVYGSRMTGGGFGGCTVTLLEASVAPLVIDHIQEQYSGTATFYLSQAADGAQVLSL
- procedureDetails: mGALK1 biochemical activity assay (Kinase-Glo Plus, ATP depletion)
- experimentalConditions: recombinant mouse GALK1, Kinase-Glo Plus ATP depletion; read-out: mGALK
readoutLabel: IC50
Write down the value, and be sure its unit follows.

Solved cases below.
{"columns": ["molecule", "valueReported"],
 "data": [
  ["CC1=C(C(=O)Nc2ncc(CO)s2)C(c2ccccc2Cl)N=C(Nc2nc3ccccc3o2)N1 (stereo not drawn) [Compound 193]", "19.3 µM"],
  ["COC(=O)Cc1ccc(NC(=O)C2=C(C)NC(Nc3nc4ccccc4o3)=NC2c2ccccc2Cl)cc1 (stereo not drawn) [Compound 170]", "12.2 µM"]
]}

Input: Give reported IC50 value for CC1=C(C(=O)NCCN(C)C)C(c2ccccc2Cl)N=C(Nc2nc3ccccc3o2)N1 (stereo not drawn) [Compound 237]
Output: 15.3 µM

---

- targetEntity: recombinant human GALK1 (Homo sapiens, UniProt P51570)
- Sequence (P51570 whole entry): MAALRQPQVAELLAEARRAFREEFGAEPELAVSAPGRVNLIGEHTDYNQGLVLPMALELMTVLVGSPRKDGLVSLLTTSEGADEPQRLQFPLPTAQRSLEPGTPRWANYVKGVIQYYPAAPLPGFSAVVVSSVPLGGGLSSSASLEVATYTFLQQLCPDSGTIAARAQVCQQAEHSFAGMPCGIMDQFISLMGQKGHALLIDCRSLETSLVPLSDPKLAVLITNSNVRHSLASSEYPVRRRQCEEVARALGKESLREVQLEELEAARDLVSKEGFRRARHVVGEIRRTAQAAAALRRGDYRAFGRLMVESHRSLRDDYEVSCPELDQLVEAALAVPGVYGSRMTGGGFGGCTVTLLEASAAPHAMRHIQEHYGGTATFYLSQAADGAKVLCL
- procedureDetails: hGALK1 biochemical activity assay (Kinase-Glo Plus, ATP depletion)
- experimentalConditions: recombinant human GALK1, Kinase-Glo Plus ATP depletion; read-out: hGALK
Overview of reported IC50 across a group of compounds:
Kindly provide the numeric value in µM only, without the unit symbol.

Solved cases below.
{"columns": ["compound", "targetEntity", "valueReported"],
 "data": [
  ["CC1=C(C(=O)NCc2cnn(C)c2)C(c2ccc(C)cc2Cl)N=C(Nc2nc3ccc(F)c(C(=O)O)c3o2)N1 (centres unmarked)", "recombinant human GALK1 (Homo sapiens, UniProt P51570)", 17.2],
  ["CC1=C(C(=O)Nc2cncc(C(=O)O)c2)C(c2ccccc2Cl)N=C(Nc2nc3ccccc3o2)N1 (centres unmarked)", "recombinant human GALK1 (Homo sapiens, UniProt P51570)", 4.32],
  ["CC1=C(C(=O)Nc2cc(C(=O)O)ccn2)C(c2ccccc2Cl)N=C(Nc2nc3cccc(F)c3o2)N1 (centres unmarked)", "recombinant human GALK1 (Homo sapiens, UniProt P51570)", 1.72],
  ["CC1=C(C(=O)Nc2cccc(C(N)=O)c2)C(c2ccccc2Cl)N=C(Nc2nc3ccccc3o2)N1 (centres unmarked)", "recombinant human GALK1 (Homo sapiens, UniProt P51570)", 7.69]
]}

Let us move to another entry and its IC50.
Input: Give reported IC50 value for CC1=C(C(=O)Nc2ccc(N(C)C)cc2)C(c2ccccc2Cl)N=C(Nc2nc3ccccc3o2)N1 (centres unmarked)
Output: 7.69

---

- targetEntity: recombinant human GALK1 (Homo sapiens, UniProt P51570)
- procedureDetails: hGALK1 biochemical activity assay (Kinase-Glo Plus, ATP depletion)
- experimentalConditions: recombinant human GALK1, Kinase-Glo Plus ATP depletion; read-out: hGALK
readoutLabel: pIC50
Please treat pIC50 as minus the base-10 logarithm of the molar concentration.

Solved cases below.
{"columns": ["molecule", "readoutLabel", "valueReported"],
 "data": [
  ["CC1=C(C(=O)NCc2cn(C)cn2)C(c2ccccc2Cl)N=C(Nc2nc3ccccc3o2)N1 (racemic)", "pIC50", 5.96],
  ["CC1=C(C(=O)Nc2cc(C(=O)O)ccn2)C(c2ccc(F)cc2Cl)N=C(Nc2nc3ccc(F)cc3o2)N1 (stereo not drawn)", "pIC50", 6.07]
]}

Let us move to another entry and its pIC50.
Input: Provide the reported pIC50 (system: recombinant human GALK1 (Homo sapiens, UniProt P51570)) for CC1=C(C(=O)Nc2cc(C(=O)O)ccn2)C(c2ccccc2Cl)N=C(Nc2nc3ccc(F)cc3o2)N1 (racemic)
Output: 6.17

---

- targetEntity: recombinant mouse GALK1 (Mus musculus)
- procedureDetails: mGALK1 biochemical activity assay (Kinase-Glo Plus, ATP depletion)
- experimentalConditions: Tables 2-15; 35 μM ATP, 100 μM galactose, 1 h; bracketed figure after some values is undefined and not reported; read-out: mGALK IC50
Label MET when IC50 < 10 µM; otherwise NOT MET.

Reference set, count: 5
{"columns": ["compound", "groupLabel"],
 "data": [
  ["CC1=C(C(=O)Nc2cc(C#N)ccn2)C(c2ccccc2Cl)N=C(Nc2nc3ccc(F)cc3o2)N1 (stereo not shown)", "MET"],
  ["CC1=C(C(=O)Nc2ccccc2CO)C(c2ccccc2Cl)N=C(Nc2nc3ccccc3o2)N1 (stereo not shown)", "NOT MET"],
  ["CC1=C(C(=O)NCc2cnn(CC(F)(F)F)c2)C(c2ccc(C)cc2Cl)N=C(Nc2nc3ccc(F)c(N)c3o2)N1 (stereo not shown)", "MET"],
  ["CNC(=O)c1ccnc(NC(=O)C2=C(C)NC(Nc3nc4ccccc4o3)=NC2c2ccccc2Cl)c1 (stereo not shown)", "NOT MET"],
  ["CC1=C(C(=O)Nc2cc(B(O)O)ccn2)C(c2ccc(C)cc2Cl)N=C(Nc2nc3ccc(F)cc3o2)N1 (stereo not shown)", "NOT MET"]
]}

Input: Threshold test, IC50 < 10 µM: CC1=C(C(=O)Nc2nncs2)C(c2ccccc2Cl)N=C(Nc2nc3ccccc3o2)N1 (stereo not shown)
Output: MET

Input: Threshold test, IC50 < 10 µM: CC1=C(C(=O)Nc2ccccn2)C(c2ccccc2Cl)N=C(Nc2nc3ccccc3o2)N1 (stereo not shown)
Output: NOT MET

Input: Threshold test, IC50 < 10 µM: CC1=C(C(=O)Nc2cc(C(=O)O)ccn2)C(c2cccc(C(F)(F)F)c2Cl)N=C(Nc2nc3ccc(F)cc3o2)N1 (stereo not shown)
Output: NOT MET

Input: Threshold test, IC50 < 10 µM: CC1=C(C(=O)Nc2ccc(-n3cncn3)cc2)C(c2ccccc2Cl)N=C(Nc2nc3ccccc3o2)N1 (stereo not shown)
Output: NOT MET

---

- targetEntity: recombinant mouse GALK1 (Mus musculus, UniProt Q9R0N0)
- procedureDetails: mGALK1 biochemical activity assay (Kinase-Glo Plus, ATP depletion)
- experimentalConditions: Tables 2-15; 35 μM ATP, 100 μM galactose, 1 h; bracketed figure after some values is undefined and not reported; read-out: mGALK IC50
Overview of reported pIC50 across a group of compounds:
Please treat pIC50 as minus the base-10 logarithm of the molar concentration.

Solved cases below.
{"columns": ["compound", "readoutLabel", "valueReported"],
 "data": [
  ["CC1=C(C(=O)Nc2ccc(O)cc2)C(c2ccccc2Cl)N=C(Nc2nc3ccccc3o2)N1 (stereo not drawn)", "pIC50", 5.01],
  ["CC1=C(C(=O)Nc2cccc(F)c2)C(c2ccccc2Cl)N=C(Nc2nc3ccccc3o2)N1 (stereo not drawn)", "pIC50", 4.91],
  ["CC1=C(C(=O)Nc2cc(CO)ccn2)C(c2ccccc2Cl)N=C(Nc2nc3ccc(F)cc3o2)N1 (stereo not drawn)", "pIC50", 4.96],
  ["CC1=C(C(=O)Nc2cc(C(=O)O)ccn2)C(c2ccc(N3CCCCC3)cc2Cl)N=C(Nc2nc3ccc(F)cc3o2)N1 (stereo not drawn)", "pIC50", 4.91],
  ["CC1=C(C(=O)Nc2cc(C(=O)O)ccn2)C(c2ccc(C(F)(F)F)cc2Cl)N=C(Nc2nc3ccc(F)cc3o2)N1 (stereo not drawn)", "pIC50", 4.96]
]}

Let us move to another entry and its pIC50.
Input: Provide the reported pIC50 (system: recombinant mouse GALK1 (Mus musculus, UniProt Q9R0N0)) for CC1=C(C(=O)NCc2cncs2)C(c2ccccc2Cl)N=C(Nc2nc3ccccc3o2)N1 (stereo not drawn)
Output: 4.91

---

- procedureDetails: aqueous kinetic solubility
- experimentalConditions: aqueous kinetic solubility
Overview of reported Sol. across a group of compounds:

{"columns": ["compound", "Sol."],
 "data": [
  ["CC1=C(C(=O)Nc2nncs2)C(c2ccc(C)cc2Cl)N=C(Nc2nc3ccccc3o2)N1 (stereo not shown)", "<1 µg/mL"],
  ["CC1=C(C(=O)Nc2ccnc(C(=O)O)c2)C(c2ccccc2Cl)N=C(Nc2nc3ccccc3o2)N1 (stereo not shown)", ">74 µg/mL"],
  ["CC1=C(C(=O)Nc2ccc([N+](=O)[O-])cc2)C(c2ccccc2Cl)N=C(Nc2nc3ccccc3o2)N1 (stereo not shown)", "<1 µg/mL"]
]}

Input: Give reported Sol. value for COC(=O)Cc1cccc(NC(=O)C2=C(C)NC(Nc3nc4ccccc4o3)=NC2c2ccccc2Cl)c1 (stereo not shown)
Output: <1 µg/mL

---

- targetEntity: recombinant human GALK1 (Homo sapiens)
- procedureDetails: hGALK1 biochemical activity assay (Kinase-Glo Plus, ATP depletion)
- experimentalConditions: recombinant human GALK1, Kinase-Glo Plus ATP depletion; read-out: hGALK
readoutLabel: IC50 (µM)
Kindly provide the numeric value in µM only, without the unit symbol.

Solved cases below.
{"columns": ["molecule", "targetEntity", "IC50, µM"],
 "data": [
  ["CC1=C(C(=O)Nc2cccnc2)C(c2ccccc2Cl)N=C(Nc2nc3ccccc3o2)N1 (centres unmarked) [Compound 149]", "recombinant human GALK1 (Homo sapiens)", 6.85],
  ["CC1=C(C(=O)Nc2cccc(F)c2)C(c2ccccc2Cl)N=C(Nc2nc3ccccc3o2)N1 (centres unmarked) [Compound 158]", "recombinant human GALK1 (Homo sapiens)", 6.85],
  ["CC1=C(C(=O)Nc2cc(C(=O)O)ccn2)[C@H](c2ccc(C)cc2Cl)N=C(Nc2nc3ccc(F)cc3o2)N1 [Compound 55]", "recombinant human GALK1 (Homo sapiens)", 0.15],
  ["CC1=C(C(=O)Nc2ncc(CO)s2)C(c2ccccc2Cl)N=C(Nc2nc3ccccc3o2)N1 (centres unmarked) [Compound 193]", "recombinant human GALK1 (Homo sapiens)", 12.2],
  ["CC1=C(C(=O)NCCN(C)C)C(c2ccccc2Cl)N=C(Nc2nc3ccccc3o2)N1 (centres unmarked) [Compound 237]", "recombinant human GALK1 (Homo sapiens)", 19.3],
  ["CC1=C(C(=O)Nc2cc(C(=O)O)ccn2)[C@@H](c2ccccc2Cl)N=C(Nc2nc3cccc(N)c3o2)N1 [Compound 25]", "recombinant human GALK1 (Homo sapiens)", 6.11],
  ["CC1=C(C(=O)NCc2cnn(C)c2)[C@@H](c2ccc(C)cc2Cl)N=C(Nc2nc3cccc(N)c3o2)N1 [Compound 116]", "recombinant human GALK1 (Homo sapiens)", 12.2]
]}

Let us move to another entry and its IC50.
Input: Provide the reported IC50 (system: recombinant human GALK1 (Homo sapiens)) for CC1=C(C(=O)Nc2ccc(Cl)cn2)C(c2ccccc2Cl)N=C(Nc2nc3ccccc3o2)N1 (centres unmarked) [Compound 153]
Output: 4.85
